# assay remarks: chemical genetic growth profiling, strain panel (AID 1159580);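 further: tested at 20 µM; growth read once vehicle control cultures reached saturation at 30 °C; 1 = growth at the plate median or of vehicle wells; lower values mean less growth of the strain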
# recorded conditions: S. cerevisiae deletion strains, growth OD, locus YPR111W, strain DBF20, active compounds read low
Screen size: about 5,500 compounds; about 2,000 (36%) were called active. Not shown: some 18% with an inconclusive outcome. Some of the results follow.
Below, each entry is listed with its recorded normalized growth.
Reply with the value as a number alone.

Example entries begin here.
// query Dear colleague, please send me the reported normalized growth for `Cc1cc(Cl)ccc1NNC(=O)c1ccno1` when you can.
// result 0.957

// query Determine its reported normalized growth: `COc1ccc(/C=C2\CSc3ccc(F)cc3C2=O)cc1`
// result 0.938

// query Give recorded normalized growth. `Cc1cc(NNC(=O)c2ccccc2Cl)nc2c1c(C)nn2C`
// result 0.993

// query Determine its reported normalized growth: `Cc1ccccc1C(=O)Oc1ccc(C(F)(F)F)cc1[N+](=O)[O-]`
// result 0.912

// query Provide normalized growth value for the following molecule: `S=C(Nc1ccc(Cl)cc1Cl)N(c1cccc(Cl)c1)c1nc2ccccc2s1`
// result 0.949

// query Given O=C1C(=O)N(CN2CCc3c([nH]c4ccccc34)C2C(F)(F)F)c2ccc(F)cc21 (configuration not stated) , respond with its normalized growth.
// result 0.969

New cases:
// query Give reported normalized growth value for `COc1cc(NC(=S)N(C)C)c(OC)cc1Cl`
// result 0.996

----------
# assay remarks: chemical genetic growth profiling, strain panel (AID 1159580);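 further: tested at 20 µM; growth read once vehicle control cultures reached saturation at 30 °C; 1 = growth at the plate median or of vehicle wells; lower values mean less growth of the strain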
# recorded conditions: S. cerevisiae deletion strains, growth OD, locus YAL013W, strain DEP1, active compounds read low
About 2,000 (36%) of roughly 5,500 compounds were called active. Another 18% or so got no clear call; they are omitted. Some of the results follow.
Documented normalized growth across a set of molecules
// keep it numeric: no unit symbol after the value

Here is how some molecules turned out for normalized growth.
// query Specify reported normalized growth for the molecule shown: `COc1ccc(S(=O)(=O)Nc2ccccc2Oc2ccc(Cl)cc2Cl)cc1OC`
// result 1.01

// query Please list normalized growth recorded for the molecule `CN1CCC(=C2c3ccccc3CC(=O)c3sccc32)CC1`
// result 1.01

// query Tell us which normalized growth value is on record for `COc1ccc(CCNC[C@@H](O)c2ccc(O)cc2)cc1OC`
// result 1.01

// query Return value of normalized growth for input `CNCCc1ccccn1` , no commentary.
// result 1.01

// query Give recorded normalized growth. `Cc1ccc(C)c(NC(=S)N(CCc2ccccc2)CCc2ccccn2)c1`
// result 0.989

// query Please supply the value of reported normalized growth for the item `COc1cc(O)c(C(=O)/C=C/c2ccccc2)c(OC)c1`
// result 0.897

// query For CC(C(=O)O)c1cccc(Oc2ccccc2)c1 (centres undefined) , write its normalized growth.
// result 0.963

// query Respond only with normalized growth recorded for `COc1cc(/C=C2\NC(=O)NC2=O)ccc1O`
// result 1

Now examine the next entry.
// query Provide only the value of recorded normalized growth for CC1=C(C(C)O)C2=NC1C=c1[nH]c(c(C)c1C(C)O)=Cc1[nH]c(c(CCC(=O)O)c1C)C=c1[nH]c(c(C)c1CCC(=O)O)=C2 (centres undefined)
// result 0.937

----------
# assay remarks: chemical genetic growth profiling, strain panel (AID 1159580);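 further: tested at 20 µM; growth read once vehicle control cultures reached saturation at 30 °C; 1 = growth at the plate median or of vehicle wells; lower values mean less growth of the strain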
# recorded conditions: S. cerevisiae deletion strains, growth OD, locus YER155C, strain BEM2 (second series), active compounds read low
About 2,000 (36%) of roughly 5,500 compounds were called active. Not shown: some 18% with an inconclusive outcome. Some of the results follow.
experimental readout: normalized growth
Would you mind answering with just the numeric figure?

// query Please indicate normalized growth recorded for `COc1ccc2cc([C@H](C)CO)ccc2c1`
// result 1.01

// query Please give the documented normalized growth of `O=C(O)c1c2ccccc2cc2ccccc12`
// result 1.01

// query Name the recorded normalized growth of the item CC(C(=O)O)c1cccc(C(=O)c2ccccc2)c1 (configuration not stated) in your answer.
// result 0.986

// query Report normalized growth for `O=C(O)c1cc2ccccc2[nH]1`
// result 1.01

// query Look up and report measured normalized growth for this entry: `COc1cc2c(cc1OC)Cc1cc(OC)c(OC)cc1Cc1cc(OC)c(OC)cc1C2`
// result 1.03

// query Using the record for `CCOC(=O)[C@H](CCc1ccccc1)N[C@H]1CCc2ccccc2N(CC(=O)O)C1=O` , state its measured normalized growth.
// result 0.902

// query Provide one value: measured normalized growth of CC(C(=O)O)c1ccc(-c2ccccc2)c(F)c1 (configuration not stated)
// result 0.979

// query Please look at this molecule and report its normalized growth: `COc1ccc2c(c1OC)C(=O)O[C@H]2[C@H]1c2cc3c(cc2CCN1C)OCO3`
// result 0.994

Continuing:
// query Using known records, supply normalized growth for `Oc1cc(Cl)ccc1Oc1ccc(Cl)cc1Cl`
// result 0.0885

// query Look up and report measured normalized growth for this entry: `COc1ccc2cc([C@H](C)C(=O)O)ccc2c1`
// result 0.964

// query Give recorded normalized growth. CC(=O)OCC(=O)[C@@]1(O)CCC2C3CCC4=CC(=O)CC[C@]4(C)C3C(=O)C[C@@]21C (some centres not stated)
// result 0.97

// query Hello, please tell me recorded normalized growth for this one: `COc1ccc2c3c1O[C@H]1C[C@@H](O)C=C[C@@]31CCN(C)C2`
// result 1.01

// query For the molecule `COc1ccc2c(c1OC)C(=O)O[C@@H]2[C@H]1c2cc3c(cc2CCN1C)OCO3` , report normalized growth.
// result 0.995
